- Test system: BDF1 mice, P388 leukemia ip, median survival T/C
- assay_info: NCI In Vivo Anticancer Drug Screen. Data for tumor model P388 Leukemia (intraperitoneal) in B6D2F1 (BDF1) mice
- assay_context: endpoint: median survival time; dose: 0.5 mg/kg/injection; schedule: Q01DX009 (ip); vehicle: saline; higher = longer survival
Inconclusive results and toxic doses are left out.
The following compounds are shown together with reported T/C values.

Sample answers from the record:
c1ccc(-c2csc3c4ccccc4c4ccccc4[n+]23)cc1 ... 100 % of control
CCOC(=O)CN1C=C(C(=O)c2cc3ccccc3n2S(=O)(=O)c2ccccc2)CCC1 ... 115 % of control
CC1CC[N-]CC1.CC1CC[N-]CC1.CC1CC[N-]CC1.CC1CC[N-]CC1.[Pt+4] ... 102 % of control

Consider the record given below.
What does the record list as T/C for `CC[C@](C)(O)C(=O)O[C@H]1C(=O)O[C@@H]2C[C@H]3C(C)=CC(=O)[C@@H](O)[C@]3(C)[C@H]3[C@@]4(O)OC[C@]32[C@@H]1[C@@H](C)[C@H]4O` ?
104 % of control

----------
- Tested on: BDF1 mice, P388 leukemia ip, median survival T/C
- assay_info: NCI In Vivo Anticancer Drug Screen. Data for tumor model P388 Leukemia (intraperitoneal) in B6D2F1 (BDF1) mice
- assay_context: endpoint: median survival time; dose: 200.0 mg/kg/injection; schedule: Q04DX003 (ip); vehicle: saline with Tween-80; higher = longer survival
Toxic doses and inconclusive results are not listed.
The following compounds are shown together with reported T/C values.

Sample answers from the record:
O=C(Nc1ccc(Cl)c(Cl)c1)O/N=C/c1ccccn1 ... 90 % of control
C[C@H]1[C@H](O)[C@H]2[C@@H](CCC3=CC(=O)CC[C@@]32C)[C@@H]2CC[C@H](O)[C@@]12C ... 95 % of control
CCOc1nc(S(=O)(=O)CC)ncc1C ... 96 % of control

Checklist item: T/C tested on BDF1 mice, P388 leukemia ip, median survival T/C, entry `COc1ccc(C2(C(=O)O)CCCC2)cc1` , value?
100 % of control

Repeat with `COCCCNS(=O)(=O)c1ncnc2nc[nH]c12`
100 % of control

Repeat with `C[C@]1(O)CC[C@H]2[C@@H]3CCC4=CC(=O)CC[C@]4(C)[C@@]3(Cl)[C@@H](O)C[C@@]21C`
100 % of control

Repeat with Cc1ccc(C(=O)C(Br)C(Br)c2ccccc2)cc1 (configuration not stated)
94 % of control

Repeat with `O=S(=O)(CCBr)CCBr`
100 % of control

Repeat with `c1ccc2c(c1)OCCOCCOc1ccccc1OCCOCCO2`
100 % of control

Repeat with `CC(C)CSc1ncnc2nc[nH]c12`
86 % of control

Repeat with CC(C)(C1c2ccccc2C(=NO)c2ccccc21)[N+](=O)[O-] (configuration not stated)
100 % of control

Repeat with `CCNc1cc(Cl)nc(N)n1`
95 % of control

----------
- System: BDF1 mice, P388 leukemia ip, median survival T/C
- assay_info: NCI In Vivo Anticancer Drug Screen. Data for tumor model P388 Leukemia (intraperitoneal) in B6D2F1 (BDF1) mice
- assay_context: endpoint: median survival time; dose: 400.0 mg/kg/injection; schedule: Q01DX009 (ip); vehicle: saline with Tween-80; higher = longer survival
Toxic doses and inconclusive results are not listed.
The following compounds are shown together with reported T/C values.

C=C(C)c1c2ccccc2cc2cccc(Sc3ccccc3)c12 ... 100 % of control
Cc1ccccc1OCCCCCl ... 115 % of control
CC(=O)N1c2cc3ccccc3cc2N(C(C)=O)c2cc3ccccc3cc21 ... 117 % of control
c1ccc2cc3nc4cc5ccccc5cc4nc3cc2c1 ... 100 % of control
CCOC(=O)c1cc2sccc2[nH]1 ... 115 % of control
CC(C)c1cc(C(C)C)nc(NNc2nc(C(C)C)cc(C(C)C)n2)n1 ... 100 % of control
Nc1cc(N)c([N+](=O)[O-])cc1[N+](=O)[O-] ... 104 % of control
Cc1ccc(S(=O)(=O)N(C)c2cc(Cl)c(C(N)=O)c(Cl)c2)cc1 ... 95 % of control
COB1OB(OC)OB(OC)O1 ... 109 % of control
CCOC(=O)c1c(N)sc2c1CCN(Cc1ccccc1)C2 ... 119 % of control

What does the record list as T/C for `C=CCOC(=O)C1c2ccccc2Cc2ccccc21` ?
110 % of control

Repeat with `O=C1c2ccccc2C(=O)c2c(O)ccc(O)c21`
109 % of control

Repeat with `CCCCSCc1nc2nc(Cl)c(Cl)nc2[nH]1`
94 % of control

Repeat with `O=C1NC(=O)C(CSCc2ccccc2)(CSCc2ccccc2)N1`
86 % of control

Repeat with `O=c1c2ccccc2[nH]c2ccc(Cl)cc12`
89 % of control

----------
The following molecules are shown together with reported T/C values.
- Tested on: BDF1 mice, P388 leukemia ip, median survival T/C
- assay_info: NCI In Vivo Anticancer Drug Screen. Data for tumor model P388 Leukemia (intraperitoneal) in B6D2F1 (BDF1) mice
- assay_context: endpoint: median survival time; dose: 1.56 mg/kg/injection; schedule: Q01DX009 (ip); vehicle: saline; higher = longer survival
Toxic doses and inconclusive results are not listed.

Sample answers from the record:
CC(=O)OCc1c(O)c2c(c(O)c1COC(C)=O)C(=O)C=CC2=O ... 107 % of control
COc1ccc(Cc2c3ccccc3cc[n+]2C)cc1Oc1ccc(Cc2c3ccccc3cc[n+]2C)cc1 ... 101 % of control
Cc1nnc2ccnn2c1C ... 108 % of control

Consider the record given below.
What does the record list as T/C for `CCCCCCCCCC[N+](C)(C)CCC[N+](C)(C)CCCCCCCCCC` ?
98 % of control

----------
The following compounds are shown together with reported T/C values.
- Test system: BDF1 mice, P388 leukemia ip, median survival T/C
- assay_info: NCI In Vivo Anticancer Drug Screen. Data for tumor model P388 Leukemia (intraperitoneal) in B6D2F1 (BDF1) mice
- assay_context: endpoint: median survival time; dose: 25.0 mg/kg/injection; schedule: Q01DX009 (ip); vehicle: saline with Tween-80; higher = longer survival
Toxic doses and inconclusive results are not listed.

Sample answers from the record:
Cc1ccc(C(=O)O)cc1S(=O)(=O)F ... 114 % of control
CCCCCCCCCCCCCCCC[N+]1([O-])CCCC1 ... 99 % of control
O=C(CC(=O)C(F)(F)F)c1csc2ccccc12 ... 112 % of control
Clc1ccc(CNc2ncnc3[nH]ncc23)cc1 ... 105 % of control
BrCC[N+]12CC[N+](CCBr)(CC1)C2 ... 105 % of control
CCNc1cc(Cl)nc(N)n1 ... 104 % of control

What does the record list as T/C for `Cc1c[n+]([O-])cc(C)c1[N+](=O)[O-]` ?
100 % of control

----------
The following compounds are shown together with reported T/C values.
- Tested on: BDF1 mice, P388 leukemia ip, median survival T/C
- assay_info: NCI In Vivo Anticancer Drug Screen. Data for tumor model P388 Leukemia (intraperitoneal) in B6D2F1 (BDF1) mice
- assay_context: endpoint: median survival time; dose: 100.0 mg/kg/injection; schedule: Q01DX009 (ip); vehicle: saline with Tween-80; higher = longer survival
Inconclusive results and toxic doses are left out.

CSc1ncc2ncn(C3OC(CO)C(O)C3O)c2n1 (configuration not stated) ... 86 % of control
CC(C)(C)NCc1cc(C(C)(C)C)cc(-c2ccc(Cl)cc2)c1O ... 102 % of control
CC(C#N)(C#N)N=Nc1ccc(Cl)cc1Cl ... 116 % of control
CN1NCc2cncnc21 ... 99 % of control
Cc1ccccc1CC(N)C(=O)O (configuration not stated) ... 92 % of control

Consider the record given below.
What does the record list as T/C for COC(=O)C1C(O)CCC2CN3CCc4c([nH]c5ccccc45)C3CC21 (configuration not stated) ?
119 % of control

----------
- System: BDF1 mice, P388 leukemia ip, median survival T/C
- assay_info: NCI In Vivo Anticancer Drug Screen. Data for tumor model P388 Leukemia (intraperitoneal) in B6D2F1 (BDF1) mice
- assay_context: endpoint: median survival time; dose: 25.0 mg/kg/injection; schedule: Q01DX009 (ip); vehicle: Klucel (hydroxypropylcellulose) (HPC); higher = longer survival
Toxic doses and inconclusive results are not listed.
readout_label: T/C

Sample answers from the record:
Cc1ccnc(NC(=O)Nc2cc(Cl)ccc2Cl)c1 ... 103 % of control
O=C(NS(=O)(=O)c1ccc(Cl)cc1)c1cccc2ccccc12 ... 95 % of control
COC(=O)c1cc([N+](=O)[O-])c(Cl)c([N+](=O)[O-])c1 ... 100 % of control
N#CC(C#N)=Cc1ccc(C=C(C#N)C#N)cc1 ... 95 % of control
Cc1cc(C)c(N)c(C)c1N ... 118 % of control

What does the record list as T/C for `CC[C@@]12CCCN3CC[C@]4(c5cccc(OC)c5N(C(C)=O)[C@@H]4CC1)[C@H]32` ?
104 % of control

Repeat with `COc1cccc2c1C(=O)CC2`
100 % of control

Repeat with `c1ccc2c[n+]3ccccc3cc2c1`
95 % of control

Repeat with COc1ccc2c(c1OC)C1(CCN(C)C)CC(=O)CCC1C=C2 (configuration not stated)
100 % of control

Repeat with `O=C(NN(Cn1c(=S)sc2ccccc21)Cn1c(=S)sc2ccccc21)c1ccncc1`
118 % of control

Repeat with `C=CCOC(=O)c1ccco1`
108 % of control

Repeat with CSc1ncnc2c1ncn2C1CCCO1 (configuration not stated)
95 % of control

This collection of values is drawn from PubChem BioAssay AID328.
